Assay: growth suppression of yeast trafficking mutant, preliminary HTS, modulators of trafficking downstream of Golgi apparatus project, 1536-format plate, OD 615 nm (AID 637)
Conditions: yeast transport mutant growth, absorbance 615 nm, 18 h; stronger effect = higher value
The source made the active and inactive calls. No stated cut-off is given here; in the data, active means inhibition above about 30%; inactive means the rest.
MEASUREMENT NAME: inhibition

As a guide, the following entries are already answered.
> print(dat)
                                   molecule     measured.value
1                    C(=N\n1cnnc1)/c1cccnc1   0.36% (inactive)
2  Cc1ccccc1CS(=O)(=O)CCC(=O)N1CCN(c2ccc(N3CCOCC3)nn2)CC1  -0.73% (inactive)
3            CCCCOc1ccc(CSc2n[nH]c(C)n2)cc1  -0.49% (inactive)
4  O=S1(=O)CC(N2CCCCC2)C(N2CCCCC2)C1 (configuration not stated)   1.27% (inactive)
5  CCOC(=O)C(CC)Sc1nc2c(c(=O)[nH]c(=O)n2C)n1C/C=C(/C)Cl (configuration not stated)   3.93% (inactive)

Qu. For `CS(=O)(=O)c1ccc2nc(NC(=O)CCC(=O)c3cccs3)sc2c1` , what is its reported inhibition?
Ans. 4.35% (inactive)

Qu. Try `COC(=O)Cc1c(C)nc2nc(-c3ccco3)[nH]n2c1=O` next.
Ans. -3.65% (inactive)

Qu. `CCOC(=O)c1c(C)n(C)c2ccc(OC)c(NC(=O)CCN3CCSCC3)c12` , same question.
Ans. -2.74% (inactive)
